Readings of TGI for the listed compounds
Tested on: KM12 colon
Experiment: NCI tumour cell line growth inhibition, 48 h

{"COMPOUND": "O=C1c2cccnc2C(=O)c2c1c(C(=O)OCCCN1CCOCC1)c1ccccn21", "TGI": "15.4 µM"}
{"COMPOUND": "CC(=O)N(C(C)=O)n1c(Cc2ccc(Cl)cc2)nn(C(C)=O)c1=O", "TGI": "> 100 µM"}
{"COMPOUND": "COc1ccc2c(c1O)[C@@]13C=C(O)C(=O)C=C1[C@@H](C2)N(C)CC3", "TGI": "> 100 µM"}
{"COMPOUND": "Cc1[nH]c(=O)nc(N/N=C/c2ccc(Cl)c(Cl)c2)c1C(=O)Nc1ccc(Cl)c(Cl)c1", "TGI": "> 22.2 µM"}
{"COMPOUND": "CCCCCCCCCCCCCCCCOCC(CC(F)(F)P(=O)(O)O)OC(C)=O (stereo not given)", "TGI": "> 50 µM"}

Per the record, `CCOC(=O)c1c2c(n(C)c1-c1ccccc1)C(=O)C(C)=CC2=O` has TGI of 22.5 µM

Per the record, `O=C(N[C@@H]1CCCc2ccccc21)[C@H](CCC(=O)N1CCN(C2CCCCC2)CC1)N1C(=O)[C@@H](N2C(=O)OC[C@@H]2c2ccccc2)[C@H]1/C=C/c1ccccc1` has TGI of 11.6 µM

Per the record, `C[C@@H](NC(=O)Cc1cc(F)cc(F)c1)C(=O)N[C@@]1(C)N=C(c2ccccc2)c2ccccc2N(C)C1=O` has TGI of > 100 µM

Per the record, CCOC(=O)CCC(NC(=O)OCc1ccccc1)C(=O)NNC(=O)OC(C)(C)C (stereo not given) has TGI of > 100 µM

Per the record, `O=S1(=O)NNC(=NCc2ccc(F)cc2)c2ccccc21` has TGI of > 100 µM

---

Test system: SK-OV-3 ovarian
Assay: NCI tumour cell line growth inhibition, 48 h
RESULT_TYPE: GI50

Example entries begin here.
{"COMPOUND": "CC(C)OP(=O)(CP(=O)(OC(C)C)OC(C)C)OC(C)C.[CH3][Sn]([Br])([Br])[Br]", "EXPERIMENTAL_TARGET": "SK-OV-3 ovarian", "GI50": "> 100 µM"}
{"COMPOUND": "COc1cc[nH]c1/C=C1\\C(=O)Nc2ccc(F)c(C#CC3(O)CCOCC3)c21", "EXPERIMENTAL_TARGET": "SK-OV-3 ovarian", "GI50": "0.441 µM"}
{"COMPOUND": "Cc1ccc([P+](Cc2ccc([N+](=O)[O-])cc2)(c2ccc(C)cc2)c2ccc(C)cc2)cc1", "EXPERIMENTAL_TARGET": "SK-OV-3 ovarian", "GI50": "12 µM"}
{"COMPOUND": "O=C(/C=C/N1CCN(c2cccc(C(F)(F)F)c2)CC1)c1ccc(Cl)cc1Cl", "EXPERIMENTAL_TARGET": "SK-OV-3 ovarian", "GI50": "36.2 µM"}
{"COMPOUND": "CN1CCCC1c1cccnc1.O=C(O)c1ccccc1O.O=C([O-])c1ccccc1[OH2+].O=C([O-])c1ccccc1[OH2+].O=C([O-])c1ccccc1[OH2+].[Mn+2] (configuration not stated)", "EXPERIMENTAL_TARGET": "SK-OV-3 ovarian", "GI50": "> 100 µM"}
{"COMPOUND": "CCOC(=O)c1[nH]c2c(c1C)-c1[nH]c(=O)c(S(=O)(=O)c3ccccc3)cc1SC2", "EXPERIMENTAL_TARGET": "SK-OV-3 ovarian", "GI50": "56.6 µM"}

Next compound, please.
Per the record, `C/C(=C(/c1ccc(O)cc1)c1ccc(OCCN2CCCC2)cc1)c1ccccc1` has GI50 of 3.25 µM
